molecular target: Interleukin-23 receptor (Homo sapiens, UniProt Q5VWK5); test: Inhibition of interleukin-23 binding to human interleukin-23 receptor incubated for 2 hrs by competitive binding ELISA
pIC50: −log10 of the molar value.
readoutKind: pIC50

Ask | Item under review: CC(C)[C@H](NC(=O)[C@H](Cc1c[nH]c2ccccc12)NC(=O)[C@H](CC(=O)O)NC(=O)[C@H](C)NC(=O)[C@@H](N)CS)C(=O)N[C@@H](CS)C(=O)N[C@@H](Cc1ccc(O)cc1)C(=O)N[C@@H](Cc1c[nH]c2ccccc12)C(N)=O . Reported pIC50?
Reply | < 6.00

Ask | Item under review: COc1ccc(C[C@H](NC(=O)[C@@H]2CSCC[C@H](NC(C)=O)C(=O)N[C@@H](CCC(N)=O)C(=O)N[C@@H]([C@@H](C)O)C(=O)N[C@@H](Cc3c[nH]c4ccccc34)C(=O)N[C@@H](CCC(N)=O)C(=O)N2)C(=O)N[C@@H](Cc2ccc3ccccc3c2)C(=O)NC(C)(C)C(=O)N[C@@H](CCCCNC(C)=O)C(=O)N[C@@H](CC(N)=O)C(=O)NCC(N)=O)cc1 . Reported pIC50?
Reply | 7.60 to 8.00

Ask | Item under review: COc1ccc(C[C@H](NC(=O)[C@@H](NC(=O)[C@H](CCC(N)=O)NC(=O)[C@H](Cc2c[nH]c3ccccc23)NC(=O)[C@@H](NC(=O)[C@H](CCC(N)=O)NC(=O)[C@@H](NC(C)=O)C(C)(C)S)[C@@H](C)O)C(C)(C)S)C(=O)N[C@@H](Cc2ccc3ccccc3c2)C(=O)N[C@@](C)(CCCN)C(=O)N[C@@H](CCCCNC(C)=O)C(=O)N[C@@H](CC(N)=O)C(=O)NCC(N)=O)cc1 . Reported pIC50?
Reply | 6.00 to 7.00

Ask | Item under review: CC(=O)N[C@@H](CS)C(=O)N[C@@H](C)C(=O)N[C@@H](CC(=O)O)C(=O)N[C@@H](Cc1c[nH]c2ccccc12)C(=O)N[C@H](C(=O)N[C@@H](CS)C(=O)N[C@@H](Cc1ccc(O)cc1)C(=O)N[C@@H](Cc1c[nH]c2ccccc12)C(=O)N[C@@H](Cc1cnc[nH]1)C(=O)N[C@H](C(=O)N[C@@H](Cc1ccccc1)C(=O)NCC(=O)N1CC[C@H]1C(=O)N[C@H](CCCCN)C(=O)O)[C@@H](C)O)C(C)C . Reported pIC50?
Reply | > 6.30

Ask | Item under review: CC(=O)N[C@@H](CS)C(=O)N[C@@H](CCC(N)=O)C(=O)N[C@H](C(=O)N[C@@H](Cc1c[nH]c2ccccc12)C(=O)N[C@@H](CCC(N)=O)C(=O)N[C@@H](CS)C(=O)N[C@H](C(=O)N[C@@H](Cc1c[nH]c2ccccc12)C(=O)N[C@@H](CCC(C)C)C(=O)N[C@@H](CCC(=O)O)C(=O)N[C@@H](CC(N)=O)C(=O)NCC(N)=O)[C@@H](C)O)[C@@H](C)O . Reported pIC50?
Reply | < 4.52

Ask | Item under review: CC(=O)N[C@H](C(=O)N[C@@H](CCC(N)=O)C(=O)N[C@H](C(=O)N[C@@H](Cc1c[nH]c2ccccc12)C(=O)N[C@@H](CCC(N)=O)C(=O)N[C@H](C(=O)N[C@@H](Cc1ccc(O)cc1)C(=O)N[C@@H](Cc1ccc2ccccc2c1)C(=O)N[C@@](C)(CCCCN)C(=O)N[C@@H](CCC(=O)O)C(=O)N[C@@H](CC(N)=O)C(=O)NCC(N)=O)C(C)(C)S)[C@@H](C)O)C(C)(C)S . Reported pIC50?
Reply | 7.00 to 7.60

----------
pIC50 values by entry
Biological target: Interleukin-23 receptor (Homo sapiens, UniProt Q5VWK5)
Sequence (Q5VWK5 whole entry): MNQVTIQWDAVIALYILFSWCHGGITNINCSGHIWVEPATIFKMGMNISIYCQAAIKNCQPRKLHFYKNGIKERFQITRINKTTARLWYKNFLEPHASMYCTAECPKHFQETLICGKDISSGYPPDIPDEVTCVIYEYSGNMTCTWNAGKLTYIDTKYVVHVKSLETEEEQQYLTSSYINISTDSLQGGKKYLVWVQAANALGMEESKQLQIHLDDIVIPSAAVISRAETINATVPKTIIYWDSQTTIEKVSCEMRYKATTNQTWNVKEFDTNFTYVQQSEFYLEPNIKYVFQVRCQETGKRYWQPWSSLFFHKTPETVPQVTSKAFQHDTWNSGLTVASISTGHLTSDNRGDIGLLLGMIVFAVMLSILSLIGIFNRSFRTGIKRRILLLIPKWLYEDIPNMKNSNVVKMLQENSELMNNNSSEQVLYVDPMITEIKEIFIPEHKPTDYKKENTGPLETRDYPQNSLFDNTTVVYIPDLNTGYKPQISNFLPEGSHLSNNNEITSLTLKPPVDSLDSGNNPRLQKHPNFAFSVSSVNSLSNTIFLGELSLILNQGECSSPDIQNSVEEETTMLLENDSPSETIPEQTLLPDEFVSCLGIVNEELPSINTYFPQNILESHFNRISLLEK
Experiment: Inhibition of interleukin-23 binding to human interleukin-23 receptor incubated for 2 hrs by competitive binding ELISA
pIC50: −log10 of the molar value. Where a SMILES comes first, the peptide text is derived from it.

CC(=O)N[C@@H](CS)C(=O)N[C@@H](C)C(=O)N[C@@H](CC(=O)O)C(=O)N[C@@H](Cc1c[nH]c2ccccc12)C(=O)N[C@H](C(=O)N[C@@H](CS)C(=O)N[C@@H](Cc1ccc(O)cc1)C(=O)N[C@@H](Cc1cccc2ccccc12)C(=O)N[C@@H](Cc1cnc[nH]1)C(=O)N[C@H](C(=O)N[C@@H](Cc1ccccc1)C(=O)NC(C)(C)C(N)=O)[C@@H](C)O)C(C)C : < 6.00
N=C(N)NCCC[C@H](NC(=O)[C@@H](N)CS)C(=O)N[C@@H](CC(=O)O)C(=O)N[C@@H](Cc1c[nH]c2ccccc12)C(=O)N[C@@H](CCC(N)=O)C(=O)N[C@@H](CS)C(=O)N[C@@H](Cc1ccc(O)cc1)C(=O)N[C@@H](Cc1c[nH]c2ccccc12)C(=O)N[C@@H](Cc1cnc[nH]1)C(=O)N[C@@H](CCCCN)C(=O)N[C@@H](Cc1ccccc1)C(=O)NCC(N)=O (H-CRDWQCYWHKFG-NH2) : 6.00 to 6.60

Ask | Item under review: CC(=O)N[C@H](CCCCN)C(=O)NCCC(=O)N[C@@H](CS)C(=O)N[C@@H](C)C(=O)N[C@@H](CC(=O)O)C(=O)N[C@@H](Cc1c[nH]c2ccccc12)C(=O)N[C@H](C(=O)N[C@@H](CS)C(=O)N[C@@H](Cc1ccc(O)cc1)C(=O)N[C@@H](Cc1c[nH]c2ccccc12)C(=O)N[C@@H](Cc1cnc[nH]1)C(=O)N[C@H](C(=O)N[C@@H](Cc1ccccc1)C(=O)NCC(=O)O)[C@@H](C)O)C(C)C . Reported pIC50?
Reply | < 6.00

----------
biological target: UniProt:Q5VWK5; assay: Inhibition of interleukin-23 binding to human interleukin-23 receptor incubated for 2 hrs by competitive binding ELISA
Where a SMILES comes first, the peptide text is derived from it. The star is where a group is joined. Palmitoyl = CCCCCCCCCCCCCCCC(=O)*
IC50 values by entry

Worked set:
CC(=O)N[C@@H](CCC(N)=O)C(=O)N[C@H](C(=O)N[C@@H](Cc1c[nH]c2ccccc12)C(=O)N[C@@H](CCC(N)=O)C(=O)N[C@@H](CS)C(=O)N[C@@H](Cc1ccc(O)cc1)C(=O)N[C@@H](Cc1c[nH]c2ccccc12)C(=O)N(C)[C@@H](CC(C)C)C(=O)N[C@@H](CCC(=O)O)C(=O)N[C@@H](CC(N)=O)C(=O)NCC(N)=O)[C@@H](C)O : > 6000 nM
CC(=O)N[C@H](C(=O)N[C@@H](CCC(N)=O)C(=O)N[C@H](C(=O)N[C@@H](Cc1c[nH]c2ccccc12)C(=O)N[C@@H](CCC(N)=O)C(=O)N[C@H](C(=O)N[C@@H](Cc1ccc(C#N)cc1)C(=O)N[C@@H](Cc1ccc2ccccc2c1)C(=O)N[C@@](C)(CCCN)C(=O)N[C@@H](CCC(=O)O)C(=O)N[C@@H](CC(N)=O)C(=O)NCC(N)=O)C(C)(C)S)[C@@H](C)O)C(C)(C)S : 100 to 1000 nM

Ask | Item under review: CCCCCCCCCCCCCCCC(=O)NCCCC[C@H](NC(=O)[C@H](CCC(=O)O)NC(=O)[C@H](CC(C)C)NC(=O)[C@H](Cc1c[nH]c2ccccc12)NC(=O)[C@H](Cc1ccc(O)cc1)NC(=O)[C@H](CS)NC(=O)[C@H](CCC(N)=O)NC(=O)[C@H](Cc1c[nH]c2ccccc12)NC(=O)[C@@H](NC(=O)[C@H](CCC(N)=O)NC(=O)[C@H](CS)NC(C)=O)[C@@H](C)O)C(=O)NCC(N)=O (Ac-CQTWQCYWLEK(Palmitoyl)G-NH2) . Reported IC50?
Reply | > 6000 nM

Ask | Item under review: CC(=O)NC1C/C=C\CCCC(C(=O)N[C@@H](Cc2ccc(O)cc2)C(=O)N[C@@H](Cc2c[nH]c3ccccc23)C(=O)N[C@@H](CCCNC(=N)N)C(=O)N[C@@H](CCCCN)C(=O)N[C@@H](Cc2ccccc2)C(=O)NCC(=O)NCCOCC(=O)N[C@H](CCCCN)C(N)=O)NC(=O)[C@H](CCC(N)=O)NC(=O)[C@H](Cc2c[nH]c3ccccc23)NC(=O)[C@H]([C@@H](C)O)NC(=O)[C@H](CCCNC(=N)N)NC1=O (stereo partly specified) . Reported IC50?
Reply | 1000 to 10000 nM

Ask | Item under review: CC(=O)N[C@H](C(=O)N[C@@](C)(CCCN)C(=O)N[C@H](C(=O)N[C@@H](Cc1c[nH]c2ccccc12)C(=O)N[C@@H](CCC(N)=O)C(=O)N[C@H](C(=O)N[C@@H](Cc1ccc(OCCN)cc1)C(=O)N[C@@H](Cc1ccc2ccccc2c1)C(=O)N[C@@](C)(CCCCN)C(=O)N[C@@H](CCC(=O)O)C(=O)N[C@@H](CC(N)=O)C(=O)NCC(N)=O)C(C)(C)S)[C@@H](C)O)C(C)(C)S . Reported IC50?
Reply | 100 to 1000 nM

Ask | Item under review: NC(=O)CNC(=O)[C@H](Cc1ccc(O)cc1)NC(=O)[C@H](Cc1cnc[nH]1)NC(=O)[C@H](Cc1cnc[nH]1)NC(=O)[C@H](Cc1c[nH]c2ccccc12)NC(=O)[C@H](Cc1ccc(O)cc1)NC(=O)[C@H](CS)NC(=O)[C@H](CCC(=O)O)NC(=O)[C@H](Cc1c[nH]c2ccccc12)NC(=O)[C@H](CC(N)=O)NC(=O)[C@H](CO)NC(=O)[C@@H](N)CS (H-CSNWECYWHHYG-NH2) . Reported IC50?
Reply | 500 to 1000 nM
